Assay: Calculated conditional stability constants for chelants with Ca^+2 at specified pH
Type: physicochemical
Conditions: pH 3
Value Type: log Conditional Stability Constant (@ pH) Ca^+2

Before answering, review these 2 worked examples.
> print(dat)
                                   molecule  observed
1  O=C(O)CC(NCC(O)CNC(CC(=O)O)C(=O)O)C(=O)O (stereo not shown)    −10.27
2  O=P(O)(O)CN(CCN(CP(=O)(O)O)CP(=O)(O)O)CCN(CP(=O)(O)O)CP(=O)(O)O    −17.50

(A) O=C(O)CN(CCN(CC(=O)O)CC(=O)O)CC(=O)O
(B) O=C(O)CN(CCO)CCN(CC(=O)O)CC(=O)O
q: Compare A and B by numeric log Conditional Stability Constant (@ pH) Ca^+2 and name the larger one. The response must carry the label of the picked entry.
a: A
(A: 0.19, B: −2.90)
